System: A673/TR/shEF
protocol: cell viability (LOESS-normalised, relative to median of negative controls) (log2 ratio); higher = more viable cells (less compound effect), active = hit call of the paper (over 3 MAD below the median)
conditionDetails: 0.25 µM; library screen: screen1; EWS-FLI1 expression: low (doxycycline-induced shRNA knockdown); treatment time: 72 h
Among all 3,200 compounds or so, about 300 (9.4%) showed activity. This is one part of a sample in which actives are shown more often than they occur.
# label = Fulfilled if cell viability (log2) < 0.009 else Not fulfilled

compound	systemTested	qualitativeLabel
O=C(O)/C=C/c1ccc(O)c(O)c1	A673/TR/shEF	Fulfilled
COCCOC(=O)C1=C(C)NC(=S)NC1c1ccccc1 (centres undefined)	A673/TR/shEF	Fulfilled
COC(=O)C[C@H]1C(C)(C)[C@@H](OC(C)=O)[C@@H]2CC3C4CC(=O)O[C@@H](c5ccoc5)[C@]4(C)CCC3[C@@]1(C)C2=O (some centres undefined)	A673/TR/shEF	Not fulfilled
COc1cc(CN2CCN(Cc3cccnc3)CC2)cc(OC)c1OC	A673/TR/shEF	Not fulfilled
CCCCC1=NC2(CCCC2)C(=O)N1Cc1ccc(-c2ccccc2-c2nn[nH]n2)cc1	A673/TR/shEF	Not fulfilled
CC(C)N1C(=O)/C(=C\c2ccco2)SC1=S	A673/TR/shEF	Not fulfilled
OC[C@@H](O)[C@@H](O)C(O)[C@H](O)[C@@H](O)CO (some centres undefined)	A673/TR/shEF	Fulfilled
CC(=O)Oc1ccc(O)cc1	A673/TR/shEF	Not fulfilled
O=C(/C=C/c1ccc(O)c(O)c1)O[C@H](Cc1ccc(O)c(O)c1)C(=O)O	A673/TR/shEF	Not fulfilled
C[C@H]1O[C@@H](O[C@H]2[C@@H](O)C[C@H](O[C@H]3[C@@H](O)C[C@H](O[C@H]4CC[C@@]5(C)[C@H](CC[C@@H]6[C@@H]5C[C@@H](O)[C@]5(C)[C@@H](C7=CC(=O)OC7)CC[C@]65O)C4)O[C@@H]3C)O[C@@H]2C)C[C@H](O)[C@@H]1O	A673/TR/shEF	Fulfilled
C[C@]12CC[C@H](O)C[C@H]1C[C@@H]1OC13C2[C@H](O)C(=O)[C@]1(C)[C@@H](C2=CC(=O)OC2)CC[C@]31O (some centres undefined)	A673/TR/shEF	Fulfilled
CC(C)c1ccc2c(c1)CCC1C(C)(CN)CCCC21C (centres undefined)	A673/TR/shEF	Fulfilled
COC(=O)C[C@H]1C(C)(C)C2(Cl)O[C@@]34CC2C(=O)[C@]1(C)C3CC[C@]1(C)C4=CC(=O)O[C@H]1c1ccoc1 (some centres undefined)	A673/TR/shEF	Not fulfilled
COc1c(C=O)c(O)cc2c1C(=O)c1ccccc1C2=O	A673/TR/shEF	Fulfilled
CC(=O)Nc1ccc2c(c1)C1C=CCC1C(c1ccc(Cl)cc1Cl)N2 (centres undefined)	A673/TR/shEF	Not fulfilled
COc1cc(OC)c(OC)cc1CN1CCN(Cc2cccnc2)CC1	A673/TR/shEF	Not fulfilled
CC1C2C(CC3C4CC[C@@H]5CC(=O)CC[C@]5(C)C4CC[C@@]32C)OC12CC[C@@H](C)CO2 (some centres undefined)	A673/TR/shEF	Not fulfilled
Cc1ccc(C(=O)NCCSc2ccccn2)cc1	A673/TR/shEF	Fulfilled

====

System: A673/TR/shEF
protocol: cell viability (LOESS-normalised, relative to median of negative controls) (log2 ratio); higher = more viable cells (less compound effect), active = hit call of the paper (over 3 MAD below the median)
conditionDetails: 0.103 µM; library screen: screen3; EWS-FLI1 expression: high (no doxycycline); treatment time: 72 h
Out of some 3,200 compounds screened, about 300 (9.4%) showed activity. Only a selection was taken, and actives are over-represented in it overall.
# cell viability (log2) values compiled below
propertyMeasured: cell viability (log2)

molecule	systemTested	experimentalValue
CCN(CC)C(=S)SSC(=S)N(CC)CC	A673/TR/shEF	0.0335
CS(=O)(=O)c1ccc(C(=O)Nc2ccc(Cl)c(-c3ccccn3)c2)c(Cl)c1	A673/TR/shEF	0.0228
CNC[C@H](O)c1ccc(O)c(O)c1	A673/TR/shEF	0.00528
C[N+]1(C)[C@@H]2CC(OC(=O)C(O)(c3cccs3)c3cccs3)C[C@H]1[C@@H]1O[C@@H]12 (stereo partly specified)	A673/TR/shEF	-0.0419
Cn1cc(C2=C(c3ccc(Cl)cc3Cl)C(=O)NC2=O)c2ccccc21	A673/TR/shEF	0.039
COc1cc2c(cc1O)CC[C@@H]1[C@@H]2CC[C@]2(C)[C@@H](O)CC[C@@H]12	A673/TR/shEF	0.0202
CNC(=O)CN(CCN(CCN(CC(=O)[O-])CC(=O)NC)CC(=O)[O-])CC(=O)[O-].O.[Gd+3]	A673/TR/shEF	0.106
O=C1[C@H](Cc2ccc(O)cc2)N2C(=O)CCN(C(=O)NCc3ccccc3)[C@H]2CN1Cc1cccc2ccccc12	A673/TR/shEF	-0.0101
CC[C@]1(O)C[C@H]2CN(CCc3c([nH]c4ccccc34)[C@@](C(=O)OC)(c3cc4c(cc3OC)N(C=O)[C@H]3[C@@](O)(C(=O)OC)[C@H](OC(C)=O)[C@]5(CC)C=CCN6CC[C@]43[C@@H]65)C2)C1	A673/TR/shEF	-3.56
COc1cc(Nc2c(C#N)cnc3cc(OCCCN4CCN(C)CC4)c(OC)cc23)c(Cl)cc1Cl	A673/TR/shEF	0.00802
CCCCC1C(=O)N(c2ccccc2)N(c2ccccc2)C1=O	A673/TR/shEF	0.0537
COc1cc2c(Oc3ccc4[nH]c(C)cc4c3F)ncnc2cc1OCCCN1CCCC1	A673/TR/shEF	0.0825
Oc1ccc([C@@H]2Oc3ccc(O)cc3[C@@H]3CCC[C@@H]32)cc1	A673/TR/shEF	-0.0128
CCC1=C[C@@H]2CN(C1)Cc1c([nH]c3ccccc13)[C@@](C(=O)OC)(c1cc3c(cc1OC)N(C)[C@H]1[C@@](O)(C(=O)OC)[C@H](OC(C)=O)[C@]4(CC)C=CCN5CC[C@]31[C@@H]54)C2	A673/TR/shEF	-4.31
O=C(c1cc(Cc2n[nH]c(=O)c3ccccc23)ccc1F)N1CCN(C(=O)C2CC2)CC1	A673/TR/shEF	-0.00614
C#Cc1cccc(Nc2ncnc3cc(OCCOC)c(OCCOC)cc23)c1	A673/TR/shEF	0.107

====

Tested on: A673/TR/shEF
protocol: cell viability (LOESS-normalised, relative to median of negative controls) (log2 ratio); higher = more viable cells (less compound effect), active = hit call of the paper (over 3 MAD below the median)
conditionDetails: 2.5 µM; library screen: screen2; EWS-FLI1 expression: high (no doxycycline); treatment time: 72 h
In all, about 3,200 compounds went through this assay and about 300 (9.4%) showed activity. The list comes from a sample in which actives are over-represented; it also holds close analogues and randomly drawn compounds.

smilesString	cell viability (log2)
CC(=O)O[C@H]1C(=O)[C@@]2(C)[C@H]([C@H](OC(=O)c3ccccc3)[C@]3(O)C[C@H](OC(=O)[C@H](O)[C@@H](NC(=O)c4ccccc4)c4ccccc4)C(C)=C1C3(C)C)[C@]1(OC(C)=O)CO[C@@H]1C[C@@H]2O	-2.93
N#C/C(=C\c1ccc(O)c(O)c1)C(=O)NCc1ccccc1	0.253
Oc1ccc(/C=C/c2cc(O)cc(O)c2)cc1	-2.99
Nc1ccc(S(=O)(=O)Nc2ccnn2-c2ccccc2)cc1	-0.179
O=c1cc(O)cc(/C=C/c2ccc(O)c(O)c2)o1	0.0405

====

Test system: A673/TR/shEF
protocol: cell viability (LOESS-normalised, relative to median of negative controls) (log2 ratio); higher = more viable cells (less compound effect), active = hit call of the paper (over 3 MAD below the median)
conditionDetails: 0.25 µM; library screen: screen1; EWS-FLI1 expression: high (no doxycycline); treatment time: 72 h
In all, about 3,200 compounds went through this assay and about 300 (9.4%) showed activity. Shown is part of a subset that was picked to be rich in actives.
Entries and their cell viability (log2)
propertyMeasured: cell viability (log2)

In [3]: df
Out[3]:
                                    compound  systemtested       propertymeasured  experimentalvalue
 0      Cc1cc(=O)c2c(O)c3c(cc2o1)OC(C)(C)CC3  A673/TR/shEF  cell viability (log2)            -0.0169
 1    COC(=O)Nc1nc2ccc(C(=O)c3cccs3)cc2[nH]1  A673/TR/shEF  cell viability (log2)              -0.83
 2                      CC(=O)O.CC(=O)O.[Cd]  A673/TR/shEF  cell viability (log2)              0.129
 3  CC(C(=O)O)c1cccc(C(=O)c2ccccc2)c1 (configuration not stated)  A673/TR/shEF  cell viability (log2)               0.12
 4         O=C(/C=C/c1ccccc1)c1c(O)cc(O)cc1O  A673/TR/shEF  cell viability (log2)             0.0431
 5  CC(C1OC(C)(C)C(O)C1O)[C@@H]1CC[C@]2(C)C3=CCC4C(C)(C)C(=O)CC[C@]4(C)C3CC[C@@]12C (some centres not stated)  A673/TR/shEF  cell viability (log2)              0.062
 6  CC(C(=O)O)c1ccc(C(=O)c2cccs2)cc1 (configuration not stated)  A673/TR/shEF  cell viability (log2)             0.0835
 7  COc1ccc(C2CC(=O)c3c(OC)cc(O)cc3O2)cc1 (configuration not stated)  A673/TR/shEF  cell viability (log2)             0.0309
 8                CCCCC[C@@H](CC(=O)O)C(=O)O  A673/TR/shEF  cell viability (log2)             0.0401
 9   COC(=O)Nc1nc2ccc(C(=O)c3ccccc3)cc2[nH]1  A673/TR/shEF  cell viability (log2)             0.0977
10  Oc1ccc2c(c1)O[C@H](c1ccc(O)c(O)c1)[C@@H](O)C2  A673/TR/shEF  cell viability (log2)             0.0741
11  COC(=O)C1=C(C)N=c2sc(=Cc3cccs3)c(=O)n2C1c1ccc(OC)cc1 (configuration not stated)  A673/TR/shEF  cell viability (log2)             0.0442
